target: viral glycoproteins (H and F); Nectin-4 (Measles virus, UniProt Q786F3); experiment: beta-galactosidase complementation-based fusion assay, Nectin-4 target cells; conditions: read-out: Nectin4 IC90
Sequence (Q786F3 24-112): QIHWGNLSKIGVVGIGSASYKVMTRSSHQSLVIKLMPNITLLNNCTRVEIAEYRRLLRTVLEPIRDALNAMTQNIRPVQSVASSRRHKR
Square brackets hold non-standard residues; d marks the D form. Peptide text beside a SMILES is read from it. * marks the point of attachment. X4 = CC(C)CCC[C@@H](C)[C@H]1CC[C@H]2[C@@H]3CC=C4C[C@@H](OC(=O)CCOCCOCCOCCOCCNC(=O)C*)CC[C@]4(C)[C@H]3CC[C@]12C; Succinimide(1-Et,3-yl) = CCN1C(=O)CC(*)C1=O; Cbz = O=C(OCc1ccccc1)*
Each entry below lists one item and its recorded IC90 value.
measurement.label: IC90

- compound: "CC(C)CCC[C@@H](C)[C@H]1CC[C@H]2[C@@H]3CC=C4C[C@@H](OC(=O)CCOCCOCCOCCOCCNC(=O)CSC[C@H](NC(=O)CNC(=O)[C@H](Cc5ccccc5)NC(=O)[C@@H](Cc5ccccc5)NC(=O)OCc5ccccc5)C(=O)O)CC[C@]4(C)[C@H]3CC[C@]12C"
  measurement.label: "IC90"
  data.value: "> 1 µM"
- compound: "CC(C)CCC[C@@H](C)[C@H]1CC[C@H]2[C@@H]3CC=C4C[C@@H](OC(=O)CCOCCOCCOCCOCCNC(=O)CSC[C@H](NC(=O)CNC(=O)[C@H](CO)NC(=O)CNC(=O)[C@H](CO)NC(=O)CNC(=O)CNC(=O)[C@H](Cc5ccccc5)NC(=O)[C@@H](Cc5ccccc5)NC(=O)OCc5ccccc5)C(=O)O)CC[C@]4(C)[C@H]3CC[C@]12C [FIP-peg4-chol] (Cbz-[dF]FGGSGSGC(X4)-OH)"
  measurement.label: "IC90"
  data.value: "7.62 µM"
- compound: "CCN1C(=O)CC(SC[C@H](NC(=O)CNC(=O)[C@H](Cc2ccccc2)NC(=O)[C@@H](Cc2ccccc2)NC(=O)OCc2ccccc2)C(=O)O)C1=O (stereo partly drawn) [Monomer N-Maleimide FIP (no GSGSG)] (Cbz-[dF]FGC(Succinimide(1-Et,3-yl))-OH)"
  measurement.label: "IC90"
  data.value: "> 1 µM"

###

biological target: viral glycoproteins (H and F); Nectin-4 (Measles virus, UniProt Q786F3); test: beta-galactosidase complementation-based fusion assay, Nectin-4 target cells; conditions: Nectin4 IC50, Table 3 (extended version)
pIC50: −log10 of the molar value. Square brackets hold non-standard residues; d marks the D form. Peptide text beside a SMILES is read from it. * marks the point of attachment. X3 = CC(C)CCC[C@@H](C)[C@H]1CC[C@H]2[C@@H]3CC=C4C[C@@H](OC(=O)C*)CC[C@]4(C)[C@H]3CC[C@]12C; Cbz = O=C(OCc1ccccc1)*

- compound: "CC(C)CCC[C@@H](C)[C@H]1CC[C@H]2[C@@H]3CC=C4C[C@@H](OC(=O)CSC[C@H](NC(=O)CNC(=O)[C@H](CO)NC(=O)CNC(=O)[C@H](CO)NC(=O)CNC(=O)CNC(=O)[C@H](Cc5ccccc5)NC(=O)[C@@H](Cc5ccccc5)NC(=O)OCc5ccccc5)C(=O)O)CC[C@]4(C)[C@H]3CC[C@]12C [FIP-chol] (Cbz-[dF]FGGSGSGC(X3)-OH)"
  pIC50: "< 5.00"
- compound: "O=C(CCN1C(=O)CC(SC[C@H](NC(=O)CNC(=O)[C@H](Cc2ccccc2)NC(=O)[C@@H](Cc2ccccc2)NC(=O)OCc2ccccc2)C(=O)O)C1=O)NCCOCCOCCOCCOCCOCCOCCOCCOCCOCCOCCOCCNC(=O)CCN1C(=O)CC(SC[C@H](NC(=O)CNC(=O)[C@H](Cc2ccccc2)NC(=O)[C@@H](Cc2ccccc2)NC(=O)OCc2ccccc2)C(=O)O)C1=O (some centres unmarked) [[FIP]2-peg11 (no GSGSG)]"
  pIC50: "< 6.15"
- compound: "O=C(CNC(=O)[C@H](Cc1ccccc1)NC(=O)[C@@H](Cc1ccccc1)NC(=O)OCc1ccccc1)NCC(=O)N[C@@H](CO)C(=O)NCC(=O)N[C@@H](CO)C(=O)NCC(=O)N[C@@H](CS)C(=O)O [FIP, Z-D-FFG-GSGSG-C (SEQ ID NO. 52)] (Cbz-[dF]FGGSGSGC-OH)"
  pIC50: 5.01
- compound: "CC(C)CCC[C@@H](C)[C@H]1CC[C@H]2[C@@H]3CC=C4C[C@@H](OCCN(CCNC(=O)CCOCCOCCOCCOCCNC(=O)CCCN5C(=O)CC(SC[C@H](NC(=O)CNC(=O)[C@H](Cc6ccccc6)NC(=O)[C@@H](Cc6ccccc6)NC(=O)OCc6ccccc6)C(=O)O)C5=O)CCNC(=O)CCOCCOCCOCCOCCNC(=O)CCCN5C(=O)CC(SC[C@H](NC(=O)CNC(=O)[C@H](Cc6ccccc6)NC(=O)[C@@H](Cc6ccccc6)NC(=O)OCc6ccccc6)C(=O)O)C5=O)CC[C@]4(C)[C@H]3CC[C@]12C (some centres unmarked) [[FIP-peg4]2-chol (no GSGSG)]"
  pIC50: "< 6.00"
- compound: "CC(C)CCC[C@@H](C)[C@H]1CC[C@H]2[C@@H]3CC=C4C[C@@H](OC(=O)CSC[C@H](NC(=O)CNC(=O)[C@H](Cc5ccccc5)NC(=O)[C@@H](Cc5ccccc5)NC(=O)OCc5ccccc5)C(=O)O)CC[C@]4(C)[C@H]3CC[C@]12C"
  pIC50: "< 6.00"
